- Tested on: VchCAST RNA-guided transposition machinery (E. coli BL21(DE3) host, lacZ target)
- experimentDescription: relative integration efficiency (T-LR orientation) vs wild-type transposon end (log2 (normalized fold change)); transposon end mutated: right end (5 bp flank + 75 bp right end); higher = more efficient transposition
Reported relative integration efficiency (log2) maps to class as: lower level: < -1; middle level: ≥ -1 and < 0.4; upper level: ≥ 0.4

ACATTTGTTGATACAACCATAAAATGATAATTACACCCATAAATTGATAATGCGACACAAACGCCCGGTCGCGGTAAGAGGATCATAGTCAGACCAACATTGCTACGACCCGTATTCGCACCGACAC upper level
ACATTTGTTGATACAACCATAAAGTGATATTTACACCCATAAATTGATATTGCTCACAACCATAAAATGATAATTACTCTGATCATAGTCAGACCAACATTGCTACGACCCGTATTCGCACCGACAC middle level
ACATTTGCTGATAGAACCATTTAATGATAATAACACCCATAAAATGATAATTATCACACCCAATTTAACTATAACGCTCTGATCATAGTCAGACCAACATTGCTACGACCCGTATTCGCACCGACAC lower level
ACATTTGTTGATACAACCATAAAATCATAATTACACCCATAAATTGATAATTATCCCACCCCATTTAACTATAACGCTCTGATCATAGTCAGACCAACATTGCTACGACCCGTATTCGCACCGACAC upper level
ACATTTGTTGATACAACCATAAAATGATAATTACACCCATAAATTGATAATTATCACACCCATAAATTGATATTGCCTCTGTACCGTTCGTATACGATACATTATACGAAGTTATTCGCACCGACAC upper level
ACATTTGTTGATACAACCATAAAATGATAATTCCACCCATAAATTGATAATTCTCACACCCATAAATTGATATTGACTCTGATCATAGTCAGACCAACATTGCTACGACCCGTATTCGCACCGACAC middle level

Kindly state the category for this sequence: `ACATTTGTTGATACAACCATAAAGTGATATTTACAACCATATATTGATATCTCTCACAACCATAAGTTGATATTTTCTCTGATCATAGTCAGACCAACATTGCTACGACCCGTATTCGCACCGACAC`
middle level

Next sequence up: `ACATTTGTTGATACAACCATAAGTTGATATTTTCAACCATAAAGTGATATTTATCACAACCATAAGTTGATATTTTCTCTGATCATAGTCAGACCAACATTGCTACGACCCGTATTCGCACCGACAC`
middle level

Note, next up: `ACATTTGTTGATACAACCATAAAATGATATAATCACCCATAAATTGATAATTATCACACCCATAAATTGATATTGCCTCTGATCATAGTCAGACCAACATTGCTACGACCCGTATTCGCACCGACAC`
middle level

Also check `ACATTTGTTGATACAACCATAAAAACTAAATTACACCCATAAATTGATAATTATCACACCCATAAATTGATATTGCCTCTGATCATAGTCAGACCAACATTGCTACGACCCGTATTCGCACCGACAC`
lower level

Now the same for `ACATTTGTTGATACAACCATTAAATGTTAATTCCACCCATAAATTGATAATTATCACACCCAATTTAACTATAACGCTCTGATCATAGTCAGACCAACATTGCTACGACCCGTATTCGCACCGACAC`
upper level

Queued: `ACATTTGTTGATACAACCATAAAATGATAATTACACCCATAAATTGATATTGCTCACACCCATAAATTGATATTGCCTCTGATCATAGTCAGACCAACATTGCTACGACCCGTATTCGCACCGACAC`
upper level

Another sequence to look at: `ACATTTGTCGATACAACCCTAAAATGATAATTACACCCATAAATGGATAATTATCACCCCCAATTTAACTATAACGCTCTGATCATAGTCAGACCAACATTGCTACGACCCGTATTCGCACCGACAC`
lower level

Next up: `ACATTTGTTCATACAACCATAAAATGATAATTACACCCATAAATTGATCATTATCACACCCAATTTAACTATAACGCTCTGATCATAGTCAGACCAACATTGCTACGACCCGTATTCGCACCGACAC`
upper level

Let us now turn to `ACATTTGTTGATACAACCCGAAAATGATAATTACACCCATAAATTGATAATTATCACACCCATAAATTGATATTGCCTCTGATCATAGTCAGACCAACATTGCTACGACCCGTATTCGCACCGACAC`
lower level
